I'd be grateful if you could share measured pIC50 for these entries.
# study.system: Glutamate NMDA receptor
# test.protocol: Displacement of [3H]-MK-801 from rat cortical membranes NMDA receptor by beta counting analysis in absence of spermine
Note on pIC50: it is the negative log10 of concentration, concentration in mol/L.

(Q) pIC50 lookup needed for CC(C)/N=C(\N)c1ccc(N2CCCN(c3ccc(/C(N)=N/C(C)C)cc3)CC2)cc1 , thanks.
(A) 4.75

(Q) pIC50 lookup needed for N=C(N)c1ccc(NC(=O)CCCCCCCCCCC(=O)Nc2ccc(C(=N)N)cc2)cc1 , thanks.
(A) 5.02

(Q) pIC50 lookup needed for CC/N=C(\N)c1ccc(-c2ccc(-c3ccc(/C(N)=N/CC)cc3)o2)cc1 , thanks.
(A) 4.91

(Q) pIC50 lookup needed for N=C(N)c1ccc(-c2ccc(-c3ccc(C(=N)N)cc3)c(F)c2)cc1 , thanks.
(A) 5.00

(Q) pIC50 lookup needed for CC(C)(C)/N=C(\N)c1ccc(N2CCCN(c3ccc(/C(N)=N/C(C)(C)C)cc3)CC2)cc1 , thanks.
(A) 4.46

(Q) pIC50 lookup needed for N=C(N)c1ccc(-c2ccc(-c3ccc(C(=N)N)cc3)o2)cc1 [FURAMIDINE] , thanks.
(A) 5.37

(Q) pIC50 lookup needed for N=C(N)c1ccc(-c2ccc(-c3nc4ccc(C(=N)N)cc4[nH]3)s2)cc1 , thanks.
(A) 5.49

(Q) pIC50 lookup needed for N=C(N)c1ccc(NC(=O)CCCCC(=O)Nc2ccc(C(=N)N)cc2)cc1 , thanks.
(A) 3.78

The measured values listed here are drawn from ChEMBL document CHEMBL3593210.
